Attribution: PubChem BioAssay

# assay_details: growth suppression of PTEN-deleted HCT116, pilot screen, cell-based, HCT116 clonal line, CellTiter-Glo (AID 824);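 also: 0% = 20 µM Hyamine control and 100% = vehicle cell control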
# assay_conditions: 60 h, at 10 µM, active compounds read low
Records with an inconclusive call do not appear.
Simple rule here: viability less than 90% is label 1, otherwise label 0.

Dear reviewer, please state whether COc1ccc2nc(NC(=O)C3CCCN3S(=O)(=O)c3ccc(C)cc3)sc2c1 (centres undefined) has viability strictly beneath 90%.
label 1

Dear reviewer, please state whether COc1ccc(CNc2ccc3cn[nH]c3c2)c(OC)c1OC has viability strictly beneath 90%.
label 1

Dear reviewer, please state whether O=C(CN(Cc1ccccc1F)S(=O)(=O)c1ccc(Cl)cc1)NCCCO has viability strictly beneath 90%.
label 0

Dear reviewer, please state whether O=C(O)CSCCc1ccccn1 has viability strictly beneath 90%.
label 0

Dear reviewer, please state whether CCOC(=O)C1=C(C)NC(=O)NC1c1ccc(C)o1 (centres undefined) has viability strictly beneath 90%.
label 0

Dear reviewer, please state whether O=C(Cc1cccs1)NCCn1ccc2ccccc21 has viability strictly beneath 90%.
label 1

Dear reviewer, please state whether CCn1cc(C(=O)N2CC(C)CC(C)C2)c(=O)c2cc(S(=O)(=O)N(C)C)ccc21 (centres undefined) has viability strictly beneath 90%.
label 0

Dear reviewer, please state whether O=C(CCC(=O)OCCCC(F)(F)C(F)(F)F)Nc1ccccc1 has viability strictly beneath 90%.
label 0

Dear reviewer, please state whether CCOCCCNC(=O)CN1C(=O)CSc2ccccc21 has viability strictly beneath 90%.
label 0

Dear reviewer, please state whether CC(C)Sc1nnc(NC(=O)C2CC2)s1 has viability strictly beneath 90%.
label 0

Dear reviewer, please state whether C=C(C)CSc1nc2c(cc1C#N)CCC2 has viability strictly beneath 90%.
label 0

Dear reviewer, please state whether Cc1c(C(=O)NCc2ccc3c(c2)OCO3)oc2ccc(S(=O)(=O)N3CCCCCC3)cc12 has viability strictly beneath 90%.
label 1

Dear reviewer, please state whether COc1ccc(N=CC2=C(O)CC(C)(C)CC2=O)cc1 has viability strictly beneath 90%.
label 0

Dear reviewer, please state whether Cn1c(SCC(=O)Nc2ccccc2F)nnc1-c1cccnc1 has viability strictly beneath 90%.
label 0

Dear reviewer, please state whether CCc1nc(C)cn1S(=O)(=O)c1ccc(Cl)c(Cl)c1Cl has viability strictly beneath 90%.
label 0

Dear reviewer, please state whether C=CCn1c(=N)n(CC(O)COc2ccc(OC)cc2)c2ccccc21 (centres undefined) has viability strictly beneath 90%.
label 1

Dear reviewer, please state whether Cn1c(SCC(=O)N2CCCCC2)nc2c([nH]c3ccccc32)c1=O has viability strictly beneath 90%.
label 1

Dear reviewer, please state whether Cc1cccc(C)c1Nc1nc2ccccc2o1 has viability strictly beneath 90%.
label 0

Dear reviewer, please state whether Cn1c(=O)c2c(nc(CN3CCOCC3)n2CCCO)n(C)c1=O has viability strictly beneath 90%.
label 0

###

# assay_details: inhibitors of the yeast RAM network, pilot screen, dse1pr::URA3 reporter, 5-FOA selection (AID 869);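 also: 0% = DMSO wells with no growth and 100% = 10 µM 1-NA-PP1 with full growth; RAM network block rescues cells from 5-FOA so hits raise OD615 growth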
# assay_conditions: S. cerevisiae dse1pr::URA3 5-FOA growth, OD615, 2 d; at 10 µM; active compounds read high; strain carries analog-sensitive mutant Cbk1 kinase
measured_endpoint: inhibition (%)
State just the number; it will be interpreted in %.

Lookup result for COc1ccccc1S(=O)(=O)Cc1ccc(C(=O)NCCN(C)C)o1 ; measured inhibition: 1.9

Lookup result for COc1ccc(C(C)(C)C)cc1NC(=O)COC(=O)c1cnc(C)cn1 ; measured inhibition: 0.395

Lookup result for O=C(CCS(=O)(=O)c1ccccc1)Nc1nc(-c2ccccn2)cs1 ; measured inhibition: 1.85

Lookup result for COc1ccc(-n2c(Cn3c(=O)sc4ccccc43)nnc2SC)cc1 ; measured inhibition: 2.47

Lookup result for O=C(NCC1COc2ccccc2O1)C1CCC(CNc2c(N3CCCCC3)c(=O)c2=O)CC1 (stereo unspecified) ; measured inhibition: 2.89

Lookup result for CCOC(=O)c1cc(-c2ccc(C)cc2)n(CC(=O)NCc2ccco2)c1C ; measured inhibition: 3.1

Lookup result for CCOCCOCN(C#N)c1nc(OC)nc(N(C)C)n1 ; measured inhibition: 0.555

Lookup result for CCN(CC)S(=O)(=O)c1ccc(C(=O)OCCN2C(=O)CCC2=O)cc1 ; measured inhibition: 0.755

Lookup result for O=C(CSc1ncn[nH]1)Nc1nnc(-c2ccccc2)s1 ; measured inhibition: -0.75

Lookup result for Cc1cc(C(=O)Nc2ccc3c(c2)OCCO3)co1 ; measured inhibition: 0.06

Lookup result for COc1ccc(C(=O)c2coc3ccc(O)c(CN(C)C)c23)cc1 ; measured inhibition: 0.74

Lookup result for CCOC(=O)c1sc(NC(=O)c2ccc(Cl)s2)cc1C ; measured inhibition: 2.33

Lookup result for O=C1Nc2ccc(S(=O)(=O)N3CCCC3C(=O)O)c3cccc1c23 (stereo unspecified) ; measured inhibition: 0.57

Lookup result for CC1(C)CC(=O)C=C(NCCN2CCN(C(=O)Nc3ccc(Cl)cc3)CC2)C1 ; measured inhibition: 1.35

Lookup result for COc1cccc(C(c2sc3ncnn3c2O)N2CCc3ccccc3C2)c1 (stereo unspecified) ; measured inhibition: 1.8

Lookup result for CC1Cc2nc(SCC(=O)NCc3ccco3)n(Cc3ccccc3)c(=O)c2S1 (stereo unspecified) ; measured inhibition: 3.45

Lookup result for CCCc1nc2c(o1)CC(CC(C)SCC)CC2=O (stereo unspecified) ; measured inhibition: 1.36

Lookup result for COC(=O)C1Sc2[nH]c(=O)sc2C(c2ccc(Cl)cc2)C1C(=O)OC (stereo unspecified) ; measured inhibition: 4.36

Lookup result for CCCC(=O)c1ccc(N2CCOCC2)c(F)c1 ; measured inhibition: -0.25

Lookup result for COc1cccc(CNC(=O)Cn2cc3c(n2)CCCCC3)c1 ; measured inhibition: 1.56

Lookup result for CCCCCn1c(CNC(C)=O)nc2ccccc21 ; measured inhibition: 0.54

Lookup result for O=C(CC1Oc2ccccc2NC1=O)NCc1ccccc1 (stereo unspecified) ; measured inhibition: 3.42

Lookup result for CCCOC(=O)C1=C(C)NC2=C(C(=O)C(C(=O)OC)C(C)C2)C1c1ccc(N(CC)CC)cc1 (stereo unspecified) ; measured inhibition: 1.56

Lookup result for O=C(CC(=O)N1CCN(c2ccccn2)CC1)Nc1ccc2nc3n(c(=O)c2c1)CCCCC3 ; measured inhibition: 0.87

Lookup result for CC(C)Cn1c(CNC(=O)c2ccccc2)nc2ccccc21 ; measured inhibition: 0.785

Lookup result for CCOc1ccccc1C1CC(c2ccc(Cl)cc2)Nc2nc(N)nn21 (stereo unspecified) ; measured inhibition: -0.11

Lookup result for O=C(Nc1ccc2oc(-c3ccccc3)nc2c1)c1ccncc1 ; measured inhibition: 0.165

Lookup result for CC(=O)N1CCC(N(CCN2CCOCC2)C(=O)Nc2ccc(Cl)c(Cl)c2)CC1 ; measured inhibition: 2.5

Lookup result for O=C(Cn1cnc2ccccc2c1=O)N(Cc1ccco1)c1ccc(O)cc1 ; measured inhibition: 0.94

Lookup result for Cc1ccc(NC(=O)C2CCN(S(=O)(=O)c3cccc4cccnc34)CC2)nc1 ; measured inhibition: -0.475

Lookup result for CCCCn1c(=O)[nH]c2ccccc21 ; measured inhibition: 1.69

Lookup result for CC(=O)Nc1c(-c2ccccc2)nc2ncccn12 ; measured inhibition: 2.77

Lookup result for COc1ccc(CCN2CC(C#N)=C3c4cc(OC)c(OC)cc4CCN3C2)cc1OC ; measured inhibition: -0.455

Lookup result for Oc1c(/C=N/c2ncn[nH]2)ccc2ccccc12 ; measured inhibition: -0.085

Lookup result for O=C(NC1CCN(Cc2ccccc2)CC1)c1ccccc1F ; measured inhibition: 2.02

Lookup result for COc1ccc(C(=O)O)cc1Nc1cc(C)nc2ncnn12 ; measured inhibition: 0.015

Lookup result for c1ccc(-n2cnnc2SCc2cn3ccccc3n2)cc1 ; measured inhibition: 1.19

Lookup result for CCOC(=O)CSC1=C(C#N)C(c2ccc(C)s2)CC(=O)N1 (stereo unspecified) ; measured inhibition: 1.54

Lookup result for Cc1ccccc1-c1nc(CN2CCC(C(=O)O)CC2)c(C)o1 ; measured inhibition: 0

Lookup result for O=C(O)C1CC=CCC1C(=O)Nc1cccc(Cl)c1Cl (stereo unspecified) ; measured inhibition: 3.07

Lookup result for Fc1ccc(OCc2nc(-c3ccc(Br)o3)no2)c(F)c1 ; measured inhibition: 0.82

Lookup result for O=C(c1cc(-c2cccc(O)c2)on1)N1CCOCC1 ; measured inhibition: 2.15

Lookup result for O=C(CCn1c(=O)oc2ccccc21)Nc1cccc(Cl)c1 ; measured inhibition: 2.17

Lookup result for OC(CNCc1ccco1)COc1ccccc1 (stereo unspecified) ; measured inhibition: 1.44

Lookup result for COc1ccc(N2CCN(C(=O)C3CCCN(S(=O)(=O)c4cccc5cccnc45)C3)CC2)cc1 (stereo unspecified) ; measured inhibition: 0.045

Lookup result for O=C1c2ccccc2C(=O)N1CCCc1nc(-c2ccc(Cl)cc2)no1 ; measured inhibition: 4.25

###

# assay_details: viability gain of MRP-1-high H69AR cells under doxorubicin, pilot screen, MRP-1 activator project, CellTiter-Glo, duplicate (AID 807);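 also: compound pretreatment 18-22 h then 72 h combined with doxorubicin; 0% = doxorubicin alone and 100% = vehicle without doxorubicin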
# assay_conditions: H69AR viability with doxorubicin, CellTiter-Glo luminescence; at 10 µM; active compounds read high
For each of the compounds below, state its viability increase.
State just the number; it will be interpreted in %.

Lookup result for COc1ccc(CCNS(=O)(=O)c2ccc3c(c2)oc(=O)n3C)cc1OC ; measured viability increase: -0.83

Lookup result for CCNC(=O)CN(c1ccc(CC)cc1)S(C)(=O)=O ; measured viability increase: -0.8

Lookup result for c1ccc2c(c1)CCCN2c1nc2ccccc2n2cnnc12 ; measured viability increase: -6.44

Lookup result for Cc1cccc(OCCn2c(=O)n(C)c3ccccc32)c1 ; measured viability increase: -2.39

Lookup result for COc1ccc(NC(=O)c2cc3c(=O)n(C)c4ccccc4c3n2C)cc1OC ; measured viability increase: -5.17

Lookup result for Cc1ccc(C2c3c(oc4cc(C)c(C)cc4c3=O)C(=O)N2CCCN2CCOCC2)cc1 (stereo unspecified) ; measured viability increase: -4.87

Lookup result for Cc1occc1C(=O)NC1CCCCCC1 ; measured viability increase: -0.64

Lookup result for COc1ccc(CN2CCCCC2C(=O)Nc2ccc(OC)c(OC)c2)cc1OC (stereo unspecified) ; measured viability increase: -1.88

Lookup result for CC(=O)Nc1nnc(-c2ccc3c(c2)CCCC3)o1 ; measured viability increase: -0.69

Lookup result for CCN(CCCNC(=O)Cn1ncc2c(=O)oc3ccccc3c21)c1cccc(C)c1 ; measured viability increase: -2.09

Lookup result for Cc1noc(C)c1S(=O)(=O)N(CC(=O)NCc1ccc(Cl)cc1)c1ccc2c(c1)OCO2 ; measured viability increase: -3.36
